System: Mycobacterium tuberculosis
Assay: Antimycobacterial activity against multi-drug resistant Mycobacterium tuberculosis 234/2005 after 21 days by microplate dilution method
Type: functional
Conditions: 234/2005, 504 h
Listed here are compounds together with their documented MIC.
Measured quantity: MIC (µM)

{"columns": ["Entry smiles", "Comparative sign", "Experimental result"],
 "data": [
  ["CCCCCCNc1cncc(C(=O)NCc2ccccc2)n1", "=", 32],
  ["CCCCCNc1cnc(C(=O)NCc2ccccc2)cn1", "=", 32],
  ["CCCCCCNc1nccnc1C(=O)NCc1ccccc1", ">", 1000]
]}

---

Test system: Mycobacterium tuberculosis
Test: Antimycobacterial activity against multi-drug resistant Mycobacterium tuberculosis Praha 4 after 21 days by microplate dilution method
Format: functional
Conditions: Praha 4, 504 h
Entries whose MIC is below 20 µM take Y; entries at or above 20 µM take N.

{"columns": ["Entry smiles", "Discrete label"],
 "data": [
  ["CCCCCNc1cnc(C(=O)NCc2ccccc2)cn1", "N"],
  ["CCCCNc1nccnc1C(=O)NCc1ccccc1", "N"],
  ["CCCCCCNc1cnc(C(=O)NCc2ccccc2)cn1", "Y"],
  ["CCCCCCCNc1cnc(C(=O)NCc2ccccc2)cn1", "Y"],
  ["CCCCCCCNc1cncc(C(=O)NCc2ccccc2)n1", "Y"],
  ["CCCCCCNc1nccnc1C(=O)NCc1ccccc1", "N"],
  ["CCCCNc1cnc(C(=O)NCc2ccccc2)cn1", "N"],
  ["CCCCNc1cncc(C(=O)NCc2ccccc2)n1", "N"],
  ["CCCCCCCCNc1cncc(C(=O)NCc2ccccc2)n1", "Y"],
  ["NNC(=O)c1ccncc1", "Y"],
  ["CCCCCCCCNc1nccnc1C(=O)NCc1ccccc1", "N"],
  ["CCCCCNc1cncc(C(=O)NCc2ccccc2)n1", "N"],
  ["CCCCCCCNc1nccnc1C(=O)NCc1ccccc1", "N"]
]}
